- testSystem: human ether-à-go-go-related gene (hERG) potassium channel (human, UniProt Q12809);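 note: peak tail current of the secondary pulse compared with the same well before compound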
- Sequence (Q12809 whole entry, looked up): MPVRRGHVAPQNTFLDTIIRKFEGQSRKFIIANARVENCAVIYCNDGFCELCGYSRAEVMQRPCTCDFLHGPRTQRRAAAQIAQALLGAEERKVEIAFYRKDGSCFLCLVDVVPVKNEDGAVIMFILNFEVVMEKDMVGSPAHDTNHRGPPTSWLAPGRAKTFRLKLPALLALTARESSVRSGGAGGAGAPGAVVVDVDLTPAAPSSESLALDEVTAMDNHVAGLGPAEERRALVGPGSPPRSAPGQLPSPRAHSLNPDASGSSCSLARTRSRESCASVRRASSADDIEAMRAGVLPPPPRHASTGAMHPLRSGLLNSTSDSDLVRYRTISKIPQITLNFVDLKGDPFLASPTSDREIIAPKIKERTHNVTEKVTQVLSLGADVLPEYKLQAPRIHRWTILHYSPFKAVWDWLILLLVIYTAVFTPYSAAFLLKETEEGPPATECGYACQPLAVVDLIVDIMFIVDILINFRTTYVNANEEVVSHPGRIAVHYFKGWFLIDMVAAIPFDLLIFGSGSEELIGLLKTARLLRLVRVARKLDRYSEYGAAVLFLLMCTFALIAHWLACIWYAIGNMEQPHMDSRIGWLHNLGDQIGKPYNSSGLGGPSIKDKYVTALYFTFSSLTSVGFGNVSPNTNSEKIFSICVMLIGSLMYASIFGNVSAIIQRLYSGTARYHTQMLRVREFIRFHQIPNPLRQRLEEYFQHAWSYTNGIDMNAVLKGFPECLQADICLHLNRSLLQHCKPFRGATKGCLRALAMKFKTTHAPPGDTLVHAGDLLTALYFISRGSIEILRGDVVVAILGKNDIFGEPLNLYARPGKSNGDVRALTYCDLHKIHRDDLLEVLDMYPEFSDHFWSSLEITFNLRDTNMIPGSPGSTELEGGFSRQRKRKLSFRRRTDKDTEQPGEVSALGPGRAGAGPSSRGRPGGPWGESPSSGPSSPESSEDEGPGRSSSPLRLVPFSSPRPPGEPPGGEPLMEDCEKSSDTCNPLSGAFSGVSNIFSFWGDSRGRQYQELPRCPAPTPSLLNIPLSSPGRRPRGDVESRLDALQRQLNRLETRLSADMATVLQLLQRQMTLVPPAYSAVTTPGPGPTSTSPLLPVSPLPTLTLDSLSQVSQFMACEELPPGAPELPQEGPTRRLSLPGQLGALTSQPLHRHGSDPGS
- measurementDescription: primary screen, population patch clamp on CHO cells stably expressing hERG; higher = less effect of the substance
The whole screen tested about 310,000 compounds, of which about 14,000 (4.5%) showed an effect of 50% or more. Effects have a minus sign here. The full list was thinned out, with strong results kept by preference.
quantity: hERG current change (%, negative = inhibition) at 10uM (%)

smilesString	testSystem	testResult
C=CCOc1nc2c(c(=O)n(C)c(=O)n2C)n1Cc1ccccc1Cl	human ether-à-go-go-related gene (hERG) potassium channel (human, UniProt Q12809)	-6.73
O=C(CCN1CCN(c2ccc(Cl)cc2)CC1)Nc1nccs1	human ether-à-go-go-related gene (hERG) potassium channel (human, UniProt Q12809)	-13.3
Cc1ccc(C(=O)NCC(=O)OCc2nnc(-c3ccc([N+](=O)[O-])cc3)o2)s1	human ether-à-go-go-related gene (hERG) potassium channel (human, UniProt Q12809)	-67.3
CCCC(=O)Nc1nnc(SCC(=O)NCc2cccs2)s1	human ether-à-go-go-related gene (hERG) potassium channel (human, UniProt Q12809)	8.39
C=C(C)CN1CCN(S(=O)(=O)c2ccc(C)c(N(C)S(=O)(=O)c3ccc(C)cc3)c2C)CC1	human ether-à-go-go-related gene (hERG) potassium channel (human, UniProt Q12809)	-2.33
Cc1csc(=O)n1CCC(=O)OCc1nnc(-c2ccc([N+](=O)[O-])cc2)o1	human ether-à-go-go-related gene (hERG) potassium channel (human, UniProt Q12809)	-67.3
COc1ccc(NC(=O)CCC(=O)N(Cc2ccc(OC)c(OC)c2)c2nccs2)cc1	human ether-à-go-go-related gene (hERG) potassium channel (human, UniProt Q12809)	13.5
Cc1cccc(OCCCCNCc2ccccc2)c1.O=C(O)C(=O)O	human ether-à-go-go-related gene (hERG) potassium channel (human, UniProt Q12809)	-38.1
CCCCCCCCNC(=O)c1cnccn1	human ether-à-go-go-related gene (hERG) potassium channel (human, UniProt Q12809)	-7.1
O=C(NC(=S)Nc1ccc(-c2nc3ncccc3o2)cc1)c1ccccc1F	human ether-à-go-go-related gene (hERG) potassium channel (human, UniProt Q12809)	14.5
Cc1ccc(S(=O)(=O)N2CCN(S(=O)(=O)c3ccc(C)cc3)C2)cc1	human ether-à-go-go-related gene (hERG) potassium channel (human, UniProt Q12809)	-24.9
S=c1[nH]cnc2scc(-c3ccc(Br)cc3)c12	human ether-à-go-go-related gene (hERG) potassium channel (human, UniProt Q12809)	0.154
CN(C)C(=O)c1ccccc1Sc1cc(Cl)ccc1Cl	human ether-à-go-go-related gene (hERG) potassium channel (human, UniProt Q12809)	-14.5
Cc1onc(-c2ccccc2)c1C(=O)OCc1nnc(-c2ccc([N+](=O)[O-])cc2)o1	human ether-à-go-go-related gene (hERG) potassium channel (human, UniProt Q12809)	-71.5
O=C(c1cccnc1)c1ncc(C(F)(F)F)cc1Cl	human ether-à-go-go-related gene (hERG) potassium channel (human, UniProt Q12809)	-3.33
Cc1ccc(S(=O)(=O)N(C)c2c(C)ccc(S(=O)(=O)N3CCN(C=O)CC3)c2C)cc1	human ether-à-go-go-related gene (hERG) potassium channel (human, UniProt Q12809)	-42.8
O=C(NCc1ccccn1)Nc1cccc([N+](=O)[O-])c1	human ether-à-go-go-related gene (hERG) potassium channel (human, UniProt Q12809)	11.6
Cc1ccc(S(=O)(=O)N2CCN(C)CC2)c(C)c1N(C)S(=O)(=O)c1ccc(Cl)cc1	human ether-à-go-go-related gene (hERG) potassium channel (human, UniProt Q12809)	-68.7
COc1ccccc1NC(=O)/C(=C/c1cccs1)NC(=O)c1ccco1	human ether-à-go-go-related gene (hERG) potassium channel (human, UniProt Q12809)	-33.1
Cc1cc(C)c(S(=O)(=O)N2CCCCC2)c(C)c1N(C)S(=O)(=O)c1ccc(Cl)cc1	human ether-à-go-go-related gene (hERG) potassium channel (human, UniProt Q12809)	0.393

====

- testSystem: human ether-à-go-go-related gene (hERG) potassium channel (human, UniProt Q12809);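 note: peak tail current of the secondary pulse compared with the same well before compound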
- measurementDescription: primary screen, population patch clamp on CHO cells stably expressing hERG; higher = less effect of the substance
Screen size: about 310,000 compounds; about 14,000 (4.5%) showed an effect of 50% or more. Effects have a minus sign here. The full list was thinned out, with strong results kept by preference.
quantity: hERG current change (%, negative = inhibition) at 10uM (%)

compound	testResult
Cc1nc2ccccc2c(=O)n1CCN1CCOCC1	4.18
NNC(=O)CNS(=O)(=O)c1ccc([N+](=O)[O-])cc1	17.4
CNCCc1ccccn1.Cl	7.88
Nc1c(/C=C2\C=Nc3ccccc32)c(=O)nc2sc(CC(=O)N3CCOCC3)nn12	17.2
Cn1cnnc1SCCCN1C(=O)c2cccc3cccc(c23)C1=O	-30.6
O=C(Nc1ccc(F)cc1)C(c1ccccc1)N1CCN(CC(=O)N2CCCC2)CC1 (centres unmarked)	-65.3
O=C(NCCc1csc(-c2cccnc2)n1)c1ccccc1Br	-4.05
Cc1ccc(NC(=O)C(c2ccccc2)N2CCN(CC(=O)N3CCOCC3)CC2)cc1Cl (centres unmarked)	-67.4
COc1ccc(NC(=O)c2ccccc2Oc2ccccc2)c(OC)c1	1.42
O=C(CN1CCN(C(C(=O)Nc2ccc(F)cc2)c2ccccc2)CC1)NC1CC1 (centres unmarked)	-27.8
CCc1nn(-c2cc(Oc3cccc4ccccc34)nc(-c3ccccc3)n2)c(N)c1C#N	23.3
CCOc1ccccc1NC(=O)NC1(C(=O)N2CCOCC2)CCCCC1	15.6
O=C(Nc1ccc(F)cc1)C(c1ccccc1)N1CCN(CC(=O)N2CCOCC2)CC1 (centres unmarked)	-52.1
O=C(Nc1ccc2c(c1)OCCO2)c1cnn(-c2ccccc2)n1	-6.02
Cc1ccc(NC(=O)C(c2ccccc2)N2CCN(CC(=O)N3CCOCC3)CC2)cc1 (centres unmarked)	-43
COc1ccc(-n2nc(C(=O)NCc3ccco3)c3c4ccccc4n(C)c3c2=O)cc1	18.1
CC(=O)Nc1cccc(C(=O)OC(C)C(=O)N2CCc3ccccc32)c1 (centres unmarked)	-33.2
COC(=O)C(C)n1cnc2c(nnn2-c2cccc(Cl)c2)c1=O (centres unmarked)	-13.4
Cc1cc(C)n(CCCNC(=O)Cn2nnnc2CN2C[C@@H](C)O[C@@H](C)C2)n1	6.72
CCOc1ccccc1NC(=O)C(c1ccccc1)N1CCN(CC(=O)N2CCOCC2)CC1 (centres unmarked)	-76.1

====

- testSystem: human ether-à-go-go-related gene (hERG) potassium channel (human, UniProt Q12809);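 note: peak tail current of the secondary pulse compared with the same well before compound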
- measurementDescription: primary screen, population patch clamp on CHO cells stably expressing hERG; higher = less effect of the substance
In all, about 310,000 compounds went through this assay and about 14,000 (4.5%) showed an effect of 50% or more. Effects have a minus sign here. For the sample, strong results were picked, then their nearest neighbours and some compounds at random.
Would you mind labelling by hERG current change (%, negative = inhibition) at 10uM? At or over -20% is satisfied, under is not satisfied.

molecule	group
O=S(=O)(c1ccc2c(c1)OCCO2)N1CCC(c2nc3ccc(Cl)cc3[nH]2)CC1	not satisfied
O=C(OCC(=O)N1CCN(C(=O)c2ccco2)CC1)c1cc(-c2ccc(Cl)c(Cl)c2Cl)nc2ccccc12	satisfied
O=C(COc1ccccc1-c1ccccc1)N/N=C/c1ccncc1	not satisfied
COc1ccc(-c2cc(C(=O)OCC(=O)N3CCCC3)c3ccccc3n2)cc1	satisfied
Cc1cccc(CSCCNC(=O)CN(c2cc(C)cc(C)c2)S(C)(=O)=O)c1	not satisfied
COc1ccc(CC2(CO)CCN(Cc3cnn(-c4ccccc4OC)c3)CC2)cc1	not satisfied
O=S(=O)(c1ccc2c(c1)OCCO2)N1CCC(c2nc3ccccc3[nH]2)CC1	satisfied
O=C(Cc1ccccc1)N1CCC(c2nc3ccccc3[nH]2)CC1	satisfied
COc1ccc(CC2(CO)CCN(Cc3cnc(-c4ccccc4C)nc3)CC2)cc1	not satisfied
Cc1ccc2nc(NC(=O)/C=C/c3ccc4c(c3)OCO4)sc2c1	satisfied
Cc1ccccc1OCC(=O)NNC=O	satisfied
CCOc1ccc(N(C(=O)CNC(=O)c2ccco2)C(C(=O)NC2CCCC2)c2ccncc2)cc1 (stereo not drawn)	satisfied
O=C(COc1ccc(-c2ccccc2)cc1)N/N=C/c1cccnc1	satisfied
COc1ccccc1CN(C)S(=O)(=O)c1cccs1	satisfied
C1CCC(n2nnnc2CN2CCCC2)CC1	satisfied
Cn1cnc2c1c(=O)n(Cc1cccc(F)c1)c(=O)n2C	satisfied
COc1ccc(CC2(CO)CCN(Cc3cccnc3)CC2)cc1	not satisfied
COc1ccc(/C=N/NC(=O)c2ccccc2NC(=O)c2ccco2)c(OC)c1	satisfied
COc1ccc(/C(C)=N/NC(=O)c2ccccc2OCc2ccccc2)c(OC)c1	satisfied
N#C/C(=C\c1cc2c(cc1Br)OCO2)c1ccc(C(=O)O)cc1	satisfied
CN(Cc1ccc(F)cc1Cl)S(=O)(=O)c1cccs1	not satisfied
O=C(N/N=C/c1cccnc1)c1ccccc1OCc1ccc(Br)cc1	not satisfied
Cc1ccc(Cl)cc1N1CCN(Cc2nnnn2C2CCCCC2)CC1	satisfied
O=C(c1cc(-c2ccco2)nc2ccccc12)N1CCN(Cc2ccccc2)CC1	not satisfied
O=C(OCC(=O)N1CCN(C(=O)c2ccco2)CC1)c1cc(-c2ccc(F)cc2)nc2ccccc12	not satisfied
COc1ccccc1-n1cc(CN2CCN(CC=C(C)C)C(CCO)C2)cn1 (stereo not drawn)	satisfied
O=C(O)C1=CC[C@@H](c2ccc(Cl)cc2)N(S(=O)(=O)c2ccc(Cl)cc2)[C@H]1c1ccc(F)cc1	satisfied
COc1ccc(CC2(CO)CCN(Cc3cnn(-c4ccccc4)c3)CC2)cc1	not satisfied
COc1ccc(CC2(CO)CCN(Cc3cnn(-c4ccc(F)cc4)c3)CC2)cc1	not satisfied
O=C(OCC(=O)N1CCN(C(=O)c2ccco2)CC1)c1cc(-c2ccccc2)nc2ccccc12	not satisfied
N#CC[n+]1cc(-c2ccc(Cl)cc2)n2c1CCC2.[Cl-]	satisfied
Cc1cccc(-c2cc3nc4c(c(N5CCC6(CC5)OCCO6)n3n2)CCCC4)c1	satisfied
CC(C)(C)c1ccc(S(=O)(=O)N2CCC(c3nc4ccc(Cl)cc4[nH]3)CC2)cc1	satisfied
Cc1cc(NC(=O)c2ccc(N(C)S(=O)(=O)c3ccccc3)cc2)no1	satisfied
Cc1ccc(C(=O)CSc2cc(C)[nH]c(=O)n2)cc1	satisfied
O=C(COc1ccccc1-c1ccccc1)N/N=C/c1cccnc1	not satisfied

Where do the numbers come from? From paper PMC4336329.
